target: T1, human melanocortin-3 receptor (human, UniProt P41968 1-323); assay: competition with [125I]-NDP-alpha-MSH, CHO-K1 cell membranes
T1 construct: whole, on cells; Ki assays used cellular membranes of the CHO-K1 cells; cAMP assays used the whole cells; also called hMC3; hMC-R receptor subtype 3
T1 sequence (P41968 whole entry): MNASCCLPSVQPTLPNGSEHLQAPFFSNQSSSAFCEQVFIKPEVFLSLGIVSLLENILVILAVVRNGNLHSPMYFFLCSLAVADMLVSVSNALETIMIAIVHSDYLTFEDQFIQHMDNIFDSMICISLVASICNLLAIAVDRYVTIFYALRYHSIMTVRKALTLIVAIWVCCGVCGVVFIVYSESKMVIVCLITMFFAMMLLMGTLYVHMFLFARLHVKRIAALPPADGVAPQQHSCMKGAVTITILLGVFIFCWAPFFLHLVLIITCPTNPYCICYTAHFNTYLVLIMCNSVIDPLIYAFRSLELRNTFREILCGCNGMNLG
property_label: Ki

[[record]]
binder = "EHXRWC (not fully specified; hydantoin ring from Gly 1, C(O) and the amino group of Cys 2; D-Phe 5; disulfide Cys 2-Cys 8 (cyclo); C-terminal amide) [cyclo[Hydantoin(C(O)-(Gly-Cys))-Glu-His-D-Phe-Arg-Trp-Cys]-NH2]"
observed_measurement = "305 nM"

